biological target: p38α/MK2 (Homo sapiens, UniProt P49137+Q16539); construct: Thermo (MK2) 5477-KS-010; PV3316; assay: Inhibition of p38α/MK2 enzyme activity (TR-FRET, ULight-CREBtide); details: 0.06 nM p38a, 1.2 nM MK2, 25 μM ATP; read-out: p38/MK2 IC50
Sequence (Q16539 whole entry): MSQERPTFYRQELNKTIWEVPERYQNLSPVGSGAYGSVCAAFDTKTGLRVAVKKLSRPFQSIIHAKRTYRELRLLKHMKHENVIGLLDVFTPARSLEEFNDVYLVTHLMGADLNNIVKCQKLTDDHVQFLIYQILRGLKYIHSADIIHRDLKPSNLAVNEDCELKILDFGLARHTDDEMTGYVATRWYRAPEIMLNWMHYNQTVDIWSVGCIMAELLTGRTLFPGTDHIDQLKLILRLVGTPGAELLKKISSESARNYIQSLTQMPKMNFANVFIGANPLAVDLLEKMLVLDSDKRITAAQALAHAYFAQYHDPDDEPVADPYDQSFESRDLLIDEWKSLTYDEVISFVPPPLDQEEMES
Sequence (P49137 whole entry): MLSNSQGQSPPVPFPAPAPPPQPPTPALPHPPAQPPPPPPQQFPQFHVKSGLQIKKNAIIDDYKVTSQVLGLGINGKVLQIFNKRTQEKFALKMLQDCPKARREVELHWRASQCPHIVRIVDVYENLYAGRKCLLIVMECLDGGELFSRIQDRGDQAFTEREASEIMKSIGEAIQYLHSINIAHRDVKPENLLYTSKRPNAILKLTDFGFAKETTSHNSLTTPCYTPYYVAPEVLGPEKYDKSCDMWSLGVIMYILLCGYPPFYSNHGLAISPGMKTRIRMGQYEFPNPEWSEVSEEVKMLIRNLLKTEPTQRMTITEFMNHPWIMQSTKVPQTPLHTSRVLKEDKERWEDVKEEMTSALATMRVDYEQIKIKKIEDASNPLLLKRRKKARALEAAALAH
METRIC: IC50 (nM)

The examples below pair each entry with its known result.
[2H]C([2H])(Oc1cc2n(c(=O)c1Cl)-c1c(cnc(-c3ccnc(C(C)(C)O)n3)c1F)CCCC2)c1ncc(F)cc1F [Example 9-1] | 0.14
[2H]C([2H])(Oc1cc2n(c(=O)c1Cl)-c1cc(-n3cc(F)c(C(C)(C)NC(C)=O)n3)ncc1/C=C\CC2)c1ncc(F)cc1F [Example 18-1] | 0.12
[2H]C([2H])(Oc1cc2n(c(=O)c1Cl)-c1cc(-n3ccc(C(C)(C)O)n3)ncc1/C=C\CC2)c1ncc(F)cc1F [Example 17-1] | 0.27

1. [2H]C([2H])(Oc1cc(C)n(-c2cc(-n3cccc(C(C)(C)O)c3=O)ncc2C)c(=O)c1Cl)c1ncc(F)cc1F [Example 11-1]
2. [2H]C([2H])(Oc1cc2n(c(=O)c1Cl)-c1c(cnc(-n3cc(F)c(C(C)(C)NC(C)=O)n3)c1F)CCCC2)c1ncc(F)cc1F [Example 6-1]
3. [2H]C([2H])(Oc1cc(C)n(-c2cc(-n3cccc(C(C)(C)NC(C)=O)c3=O)ncc2C)c(=O)c1Cl)c1ncc(F)cc1F [Example 5-1]
Data request: Order the entries by their reported IC50, beginning at the minimum. Hello, could you send the labels back in the order asked? Thank you.
Data returned: 2, 1, 3

----------
biological target: p38α/MK2 (Homo sapiens, UniProt P49137+Q16539); construct: Thermo (MK2) 5477-KS-010; PV3316; assay: Inhibition of p38α/MK2 enzyme activity (TR-FRET, ULight-CREBtide); settings: 0.06 nM p38a, 1.2 nM MK2, 25 μM ATP; read-out: p38/MK2 IC50
METRIC: IC50 (nM)

[2H]C([2H])(Oc1cc2n(c(=O)c1Cl)-c1cc(-n3cccc(C(C)(C)O)c3=O)ncc1/C=C\CC2)c1ncc(F)cc1F [Example 19-1] | 0.12

A. [2H]C([2H])(Oc1cc(C)n(-c2cc(-n3cccc(C(C)(C)O)c3=O)ncc2C)c(=O)c1Cl)c1ccc(F)cc1F [Example 14-1]
B. [2H]C([2H])(Oc1cc(C)n(-c2cc(-n3cccc(C(C)(C)O)c3=O)ncc2Cl)c(=O)c1Cl)c1ncc(F)cc1F [Example 10-1]
Data request: Please indicate which item has the smaller measured IC50: A versus B Return value: the label identifying the chosen record.
Data returned: A

----------
test system: TNF-α in U937 cells; experiment: Inhibition of the expression level of TNF-α in LPS-stimulated U937 cells (ELISA); format: cell-based; details: Homo sapiens, U-937; PMA-differentiated U937, 10 ng/ml LPS 4 hours; read-out: U937 cell activity test TNF-α IC50
METRIC: IC50 (nM)

Consider the following illustrative entries.
[2H]C([2H])(Oc1cc2n(c(=O)c1Cl)-c1cc(-c3ccnc(C(C)(C)NC(C)=O)n3)ncc1CCCC2)c1ncc(F)cc1F | 1.2
[2H]C([2H])(Oc1cc2n(c(=O)c1Cl)-c1cc(-n3cc(F)c(C(C)(C)NC(C)=O)n3)ncc1CCCC2)c1ncc(F)cc1F | 0.18
[2H]C([2H])(Oc1cc2n(c(=O)c1Cl)-c1cc(-c3ccnc(C(C)(C)O)n3)ncc1/C=C\CC2)c1ncc(F)cc1F | 0.85
[2H]C([2H])(Oc1cc2n(c(=O)c1Cl)-c1c(cnc(-n3cc(F)c(C(C)(C)NC(C)=O)n3)c1F)CCCC2)c1ncc(F)cc1F | 0.16
[2H]C([2H])(Oc1cc(C)n(-c2cc(-n3cccc(C(C)(C)O)c3=O)ncc2C)c(=O)c1Cl)c1ncc(F)cc1F | 0.21
[2H]C([2H])(Oc1cc2n(c(=O)c1Cl)-c1cc(-n3cccc(C(C)(C)O)c3=O)ncc1CCCC2)c1ncc(F)cc1F | 0.18
[2H]C([2H])(Oc1cc2n(c(=O)c1Cl)-c1cc(-n3ccc(C(C)(C)O)n3)ncc1CCCC2)c1ncc(F)cc1F | 0.33
[2H]C([2H])(Oc1cc(C)n(-c2cc(-n3cccc(C(C)(C)O)c3=O)ncc2Cl)c(=O)c1Cl)c1ncc(F)cc1F | 0.1

I. [2H]C([2H])(Oc1cc(C)n(-c2cc(-n3cccc(C(C)(C)O)c3=O)ncc2C)c(=O)c1Cl)c1ccc(F)cc1F
II. [2H]C([2H])(Oc1cc2n(c(=O)c1Cl)-c1c(cnc(-n3ccc(C(C)(C)O)n3)c1F)CCCC2)c1ncc(F)cc1F
III. [2H]C([2H])(Oc1cc2n(c(=O)c1Cl)-c1c(cnc(-c3ccnc(C(C)(C)NC(C)=O)n3)c1F)CCCC2)c1ncc(F)cc1F
IV. [2H]C([2H])(Oc1cc2n(c(=O)c1Cl)-c1cc(-c3ccnc(C(C)(C)O)n3)ncc1CCCC2)c1ncc(F)cc1F
V. [2H]C([2H])(Oc1cc(C)n(-c2cc(-n3cccc(C(C)(C)NC(C)=O)c3=O)ncc2C)c(=O)c1Cl)c1ccc(F)cc1F
Data request: Please list the entries, largest IC50 first. Dear reader, please state the labels in the requested order.
Data returned: IV, V, III, II, I
